# Tested on: XF498
# experimental_details: NCI tumour cell line growth inhibition, 48 h
Activity calls are given as the source filed them. No stated cut-off is given here; in the data, active = GI50 up to about 1.1 µM and inactive = higher.
Outcomes: TRUE = active, FALSE = inactive

In [3]: df
Out[3]:
                                    compound  class_label
 0  COc1ccc2nc3ccccc3c(NCCCCCCN(CCCl)CCCl)c2c1         TRUE
 1  Cc1cc(NCCCCCCCNc2cc(C)nc3cc([N+](=O)[O-])ccc23)c2ccc([N+](=O)[O-])cc2n1        FALSE
 2            O=C(O)C1=C(Cl)c2ccccc2S1(=O)=O        FALSE
 3  Nc1ccc2c(c1)C(=O)N(OS(=O)(=O)c1ccccc1)C2=O        FALSE
 4  CC(C)C1=CC(=O)C(C)(C2=NC(C)(C)CO2)c2ccccc21 (stereo unspecified)        FALSE
 5   Cc1c2ccnc(C(F)(F)F)c2cc2c1[nH]c1ccccc12        FALSE
 6              Cc1nnc2c3nnc(C)n3c3ccccc3n12        FALSE
 7        O=CC[C@H]1C(=O)C[C@@H]2CCC[C@@H]21        FALSE
 8      Nc1ccc(O)c2c1C(=O)c1c(N)ccc(O)c1C2=O        FALSE
 9  CC(C)OP(=O)(OC(C)C)/C(=N/Nc1ccc([N+](=O)[O-])cc1)NCCO        FALSE
10  COc1ccc(N2C(=O)C3c4[nH]c5ccccc5c4C4CC(C)(C)CC(C)(C)C4C3C2=O)cc1 (stereo unspecified)        FALSE
11  CN1CC[C@@H](c2c(O)cc(O)c3c(=O)cc(-c4ccccc4Cl)oc23)[C@@H](O)C1         TRUE
12     COc1cc(O)c2c(c1O)C(=O)c1cc(C)ncc1C2=O        FALSE
13  COc1ccc(/C(=N\NC(=O)C(N)=O)C(c2ccc(OC)cc2)C2(O)C(=O)Nc3c(Cl)cccc32)cc1 (stereo unspecified)        FALSE
14  O=C1C=C[C@@H](COC2OC(CO)C(O)C(O)C2O)O1 (stereo partly specified)        FALSE
15  CC1CC(=O)C(CC(=O)O)[C@H]1C(C(=O)C(=O)Nc1cc(Cl)ccc1Cl)[N+](=O)[O-] (stereo partly specified)        FALSE
